System: CEM T-cell acute lymphoblastic leukemia cell line
assay_text: Trypan-blue exclusion assay, CEM
Format: cell-based
recorded_conditions: Homo sapiens, 96 h; CEM, 4 days incubation; read-out: IC50 (μM), CEM leukemia
readout_label: IC50 (µM)
State the answer as a number, implicitly in µM.

{"columns": ["compound", "tgt", "unit_label", "IC50"],
 "data": [
  ["CC(C)=CCC12OC(C)(C)C3CC(C=C4C(=O)c5ccccc5OC431)C2=O (centres unmarked)", "CEM T-cell acute lymphoblastic leukemia cell line", "µM", 0.3]
]}

// moving on: another record for IC50
Problem: Recorded IC50 of `CC(C)=CCC[C@]1(C)C=Cc2c(O)c3c(c(CC=C(C)C)c2O1)O[C@]12C(=C[C@@H]4C[C@H]1C(C)(C)O[C@@]2(C/C=C(/C)C(=O)O)C4=O)C3=O` , please.
Result: 0.15
